Every entry's value here was drawn from patent US10399989B2.

- Test system: OCI-Ly10 human DLBCL cells
- METHOD SUMMARY: OCI-Ly10 anti-proliferative activity (Resazurin, 72 h)
- Type: cell-based
- PARTICULARS: Homo sapiens, OCI-Ly10, 72 h, read-out: Proliferation OCI-Ly10-IC50
- Protocol: Compounds were assayed for effects on the growth of OCI-Ly10 human DLBCL cells that are dependent on NFκB signalling. OCI-Ly10 cells were grown in suspension in T225 flasks, centrifuged and re-suspended in 2.5% FBS containing media. […] An additional plate of cells to be used as the Day 0 read was seeded without compound addition, Resazurin was added to each well, incubated for 5 h and the fluorescence measured at 590 nm. […]
pIC50: −log10 of the molar value.
PROPERTY MEASURED: pIC50

- COc1ccc(F)cc1C(=O)NCc1ccc(-c2nn(C3CCCC3)c3ncnc(N)c23)cc1: 7.00 to 8.00
- COc1ccccc1C(=O)NCc1ccc(-c2nn(C3CCCC(=O)C3)c3ncnc(N)c23)cc1 (stereo not shown): 7.00 to 8.00
- COc1ccccc1C(=O)NCc1ccc(-c2nn(C3CCC4(C3)OCCO4)c3ncnc(N)c23)cc1 (stereo not shown): 7.00 to 8.00
- COc1ccc(F)cc1C(=O)NCc1ccc(-c2nn(C(C)(C)C)c3ncnc(N)c23)cc1: 7.00 to 8.00
- CCO[C@H]1C=C[C@H](n2nc(-c3ccc(CNC(=O)c4ccccc4OC)cc3)c3c(N)ncnc32)C1: 6.00 to 7.00
- COc1ccccc1C(=O)NCc1ccc(-c2nn([C@H]3C=C[C@H](N)C3)c3ncnc(N)c23)cc1: 6.00 to 7.00
- COc1ccc(F)cc1C(=O)NCc1ccc(-c2nn(C3CCC(C)(O)CC3)c3ncnc(N)c23)cc1 (single isomer, unassigned): 7.00 to 8.00
